- Tested on: 786-0
- experiment.description: NCI tumour cell line growth inhibition, 48 h
Activity calls are given as the source filed them. Cut-off read from the data, not from the text of the source: active = GI50 up to about 1.1 µM and inactive = higher.
assay.metric: GI50

CC(C)[C@H]1C(=O)O[B@-](F)(c2ccccc2)/[N+]1=C\N(C)C	> 100 µM (inactive)
CCOC(=O)C(=CN1CCNC1=S)C(=O)OCC	> 100 µM (inactive)
Cc1c2cc[n+](C)cc2c(C)c2c1[nH]c1ccc(O)c(OCC(F)(F)F)c12	1.46 µM (inactive)
OC(CC(O)(C(F)(F)F)C(F)(F)F)c1ccc(C(O)CC(O)(C(F)(F)F)C(F)(F)F)cc1 (centres undefined)	20.4 µM (inactive)
CC(C)NC(=O)OCc1c(COC(=O)NC(C)C)c(-c2ccc[n+](COC(=O)C3CCCCC3)c2)n2c1CCC2	28.1 µM (inactive)
CC(=O)NNc1nc(C)c(C(/C=C/c2ccccc2O)=N/N=C(N)N)s1	> 100 µM (inactive)
Cc1cc2c(cc1C)[n+]([O-])c(C(=O)CC(=O)C(=O)Nc1ccccc1C(C)C)c(C)[n+]2[O-]	> 100 µM (inactive)
COCC1OC([P+](c2ccccc2)(c2ccccc2)c2ccccc2)CC(OC)C1OC (centres undefined)	53.2 µM (inactive)

Task: Record request: GI50 value, item "O=C(CC(=O)n1nc(-c2ccccc2)c(/N=N/c2ccc([N+](=O)[O-])cc2)c1-c1ccccc1)Nc1ccc(Cl)cc1"
Output: 34.8 µM (inactive)

* * *

- Test system: MCF7
- experiment.description: NCI tumour cell line growth inhibition, 48 h
Activity calls are given as the source filed them. Cut-off read from the data, not from the text of the source: active = GI50 up to about 1.1 µM and inactive = higher.
Allowed answers: active, inactive

O=C1c2cc([N+](=O)[O-])sc2C(=O)c2c([N+](=O)[O-])csc21	active
CC(=O)N1N(c2ccc([N+](=O)[O-])cc2)C(=O)C1(C)C	inactive
Cc1n[nH]c(CC#N)n1	inactive
Cc1ccc2c(=O)c(-c3nnc(NC4CCCCC4)s3)c[nH]c2n1	inactive
COc1cc(C2SCC(=O)N2NC(=O)c2ccc(NC(C)=O)cc2OC)ccc1O (stereo not given)	inactive

Task: What outcome does the record of this test show for COc1cc2c(cc1O)-c1c(OC)c(O)cc3c1C(C2)N(C)CC3 (stereo not given) ?
Output: inactive

Task: What outcome does the record of this test show for "CC[N+](C)(CC)CCN1C(=O)c2ccccc2S1(=O)=O" ?
Output: inactive

Task: What outcome does the record of this test show for COc1c(OC(C)C)cc2cc(O)c(C(=O)NC3Cc4ccc(c(Cl)n4)O[C@@H]4C=C5C#C/C(=C\C#CC6OC56C4OC4CC(C)(O)C(O)C(C)O4)C(OC4CC(O)C(N(C)C)C(C)O4)COC3=O)cc2c1OC (stereo not given in full) ?
Output: inactive

Task: What outcome does the record of this test show for "NNC(=O)CC(=O)Nc1ccccc1Cl" ?
Output: inactive

* * *

Exercise: state measured GI50 for each of the molecules provided.
- Test system: HT-29
- experiment.description: NCI tumour cell line growth inhibition, 48 h
Activity calls are given as the source filed them. Cut-off read from the data, not from the text of the source: active = GI50 up to about 1.1 µM and inactive = higher.

Completed entries (count: 5):
O=[As](O)(O)c1ccc(/N=N/c2ccc(O)cc2)cc1	> 100 µM (inactive)
CC1=C2CN(C(=O)OCC(C)C)CCC2C2=C(C(=O)c3ccccc3C2=O)C1C (stereo not given)	> 10 µM (inactive)
Cn1cc2c(=O)n3ncn(-c4ccc(Br)cc4)c3nc2n1	> 100 µM (inactive)
CCOC(=O)CC[C@H](NC(=O)c1ccc(CNc2nc3cc(C(F)(F)F)ccc3nc2C(=O)OCC)cc1)C(=O)OCC	> 100 µM (inactive)
COC(=O)C(F)C(Br)C(=O)OC (stereo not given)	2.57 µM (inactive)

// input: 8 molecules below; output: GI50 for each
1. CCn1c(C)nc([N+](=O)[O-])c1Sc1ncc[nH]1
2. Cc1[nH]c2ncn(Nc3ccccc3)c(=N)c2c1Cc1ccccc1
3. Cc1cn(C2CC(OC(=O)c3ccc(Cl)cc3)C(COC(=O)c3ccc(Cl)cc3)O2)c(=O)[nH]c1=O (stereo not given)
4. C(CCCCc1nnc(N2CCCCC2)o1)CCCc1nnc(N2CCCCC2)o1
5. O=C1CCC2(CCO1)OCCO2
6. C[N+](C)(C)CC(=O)NC(=O)N/N=C\C(CC#N)CN(Cc1ccccc1)Cc1ccccc1 (stereo not given)
7. CC(=N\N=C\c1ccccn1)/C(C)=N/N=C/c1ccccn1
8. O=C(/C=C/c1ccc(Cl)c(Cl)c1)c1ccc2ccccc2c1

Output:
1: 78.7 µM (inactive); 2: 2.6 µM (inactive); 3: > 100 µM (inactive); 4: > 100 µM (inactive); 5: > 100 µM (inactive); 6: > 100 µM (inactive); 7: > 100 µM (inactive); 8: > 100 µM (inactive)

// input: 7 molecules below; output: GI50 for each
1. Cc1cc(=O)oc2cc(OS(C)(=O)=O)ccc12
2. O=c1c2cc(Cl)ccc2sc2cccc(Cl)c12
3. CCOC(=O)C#Cc1ccc(C#CC(=O)OCC)cc1
4. CC1C(=O)N=C2C(=CN(Cc3ccccc3)c3ccccc32)C(=O)N1C (stereo not given)
5. CC1=C(O)C(=O)C[C@]2(C)[C@H]3CC=C4[C@@H]5CC(C)(C)CC[C@@H]5C(=O)[C@H](O)[C@@]4(C)[C@]3(C)CC[C@@H]12
6. Cc1ccc([S+](c2ccccc2)c2cc(C)ccc2C)cc1.O=C(OC(C(=O)[O-])C(OC(=O)c1ccccc1)C(=O)O)c1ccccc1 (stereo not given)
7. COc1cc(/C=C2\N=C(c3ccccc3)N(C3Nc4cc5c(cc4S3)NC(N3C(=O)/C(=C/c4cc(OC)c(OC)c(OC)c4)N=C3c3ccccc3)S5)C2=O)cc(OC)c1OC (stereo not given)

Output:
> 100 µM (inactive)
> 100 µM (inactive)
1.99 µM (inactive)
> 100 µM (inactive)
> 50 µM (inactive)
7.69 µM (inactive)
74.6 µM (inactive)
